- MEASUREMENT CONDITIONS: 328.15 K; 101.33 kPa; Liquid; Vibrating tube method
± gives the expanded uncertainty stated by the source.
EXPERIMENTAL ENDPOINT: mass density

# query: mass density of entry CCCCCCn1cc[n+](CCC#N)c1.O=C([O-])c1cccc(S(=O)(=O)O)c1 [3-(2-cyanoethyl)-1-hexyl-1H-imidazolium 3-sulfobenzoate]
1225 ± 3.5 kg/m3

New cases:
Which mass density value belongs to CCCCCCn1cc[n+](CCC#N)c1.O=S(=O)([O-])C(F)(F)F ?
1263.8 ± 4.5 kg/m3

Next record, please: CCCCC(CC)COC(=O)CC(C(=O)OCC(CC)CCCC)S(=O)(=O)[O-].CCCCCC[n+]1ccn(CCC#N)c1 (stereo not given)
1067.9 ± 2.5 kg/m3

Subsequent entry: CCCCCCCCCCCCOS(=O)(=O)[O-].CCCCCCn1cc[n+](CCC#N)c1 [3-(2-cyanoethyl)-1-hexyl-1H-imidazolium dodecyl sulfate]
1078.3 ± 2.3 kg/m3

Here is the next molecule: CCCCCCn1cc[n+](CCC#N)c1.O=S(=O)([O-])c1ccccc1 [3-(2-cyanoethyl)-1-hexyl-1H-imidazolium benzenesulfonate]
1203 ± 2.4 kg/m3

----------
Entries and their mass density
- MEASUREMENT CONDITIONS: 298.15 K; 101.33 kPa; Liquid; Vibrating tube method
± gives the expanded uncertainty stated by the source.
Report as: number unit

GET /values?readout=mass density&item= CCCCCCCCCCCCOS(=O)(=O)[O-].CCCCCCn1cc[n+](CCC#N)c1 [3-(2-cyanoethyl)-1-hexyl-1H-imidazolium dodecyl sulfate]
1097.8 ± 2.3 kg/m3

# iterate: CCCCC(CC)COC(=O)CC(C(=O)OCC(CC)CCCC)S(=O)(=O)[O-].CCCCCC[n+]1ccn(CCC#N)c1 (stereo not given)
1089 ± 2.6 kg/m3

// same read-out, input: CCCCCCn1cc[n+](CCC#N)c1.O=S(=O)([O-])c1ccccc1 [3-(2-cyanoethyl)-1-hexyl-1H-imidazolium benzenesulfonate]
1222.7 ± 2.5 kg/m3

Also CCCCCCn1cc[n+](CCC#N)c1.O=C([O-])c1cccc(S(=O)(=O)O)c1 [3-(2-cyanoethyl)-1-hexyl-1H-imidazolium 3-sulfobenzoate] ?
1244.6 ± 3.6 kg/m3

Kindly review the next compound as well.
Query: mass density; subject: CCCCCCn1cc[n+](CCC#N)c1.O=S(=O)([O-])C(F)(F)F
1285.7 ± 4.6 kg/m3

----------
- MEASUREMENT CONDITIONS: 303.15 K; 101.33 kPa; Liquid; Vibrating tube method
EXPERIMENTAL ENDPOINT: mass density (kg/m3)
# number only, unit kg/m3 dropped from output

Take a look at these entries with their results.
For the compound shown here, CCCCCCn1cc[n+](CCC#N)c1.O=S(=O)([O-])C(F)(F)F , give the reported mass density.
1281.9

Can you handle CCCCCCn1cc[n+](CCC#N)c1.O=C([O-])c1cccc(S(=O)(=O)O)c1 [3-(2-cyanoethyl)-1-hexyl-1H-imidazolium 3-sulfobenzoate] next?
1241.2

Next:
Dear colleague, I am looking for the recorded mass density of the following compound: CCCCCCCCCCCCOS(=O)(=O)[O-].CCCCCCn1cc[n+](CCC#N)c1 [3-(2-cyanoethyl)-1-hexyl-1H-imidazolium dodecyl sulfate]
1094.5

What do you have for CCCCCCn1cc[n+](CCC#N)c1.O=S(=O)([O-])c1ccccc1 [3-(2-cyanoethyl)-1-hexyl-1H-imidazolium benzenesulfonate] ?
1219.4

# repeat for CCCCC(CC)COC(=O)CC(C(=O)OCC(CC)CCCC)S(=O)(=O)[O-].CCCCCC[n+]1ccn(CCC#N)c1 (stereo not given)
1085.4

----------
// reported viscosity per item
- MEASUREMENT CONDITIONS: 348.15 K; 101.33 kPa; Liquid
Numbers after ± are expanded uncertainties.
Answer by giving the amount and then stating its unit.

Look over these answered cases.
Name the reported viscosity value associated with the molecule CCCCCCn1cc[n+](CCC#N)c1.O=S(=O)([O-])C(F)(F)F
40.1 ± 1 mPa·s

Next: CCCCC(CC)COC(=O)CC(C(=O)OCC(CC)CCCC)S(=O)(=O)[O-].CCCCCC[n+]1ccn(CCC#N)c1 (stereo not given)
278.6 ± 27 mPa·s

Request: CCCCCCn1cc[n+](CCC#N)c1.O=S(=O)([O-])c1ccccc1 [3-(2-cyanoethyl)-1-hexyl-1H-imidazolium benzenesulfonate]
94.6 ± 3.8 mPa·s

Ok, now CCCCCCn1cc[n+](CCC#N)c1.O=C([O-])c1cccc(S(=O)(=O)O)c1 [3-(2-cyanoethyl)-1-hexyl-1H-imidazolium 3-sulfobenzoate]
133.6 ± 7.9 mPa·s

The record that follows has no viscosity shown yet.
I would be grateful if you could share the reported viscosity for CCCCCCCCCCCCOS(=O)(=O)[O-].CCCCCCn1cc[n+](CCC#N)c1 [3-(2-cyanoethyl)-1-hexyl-1H-imidazolium dodecyl sulfate] .
189.5 ± 14 mPa·s

----------
- MEASUREMENT CONDITIONS: 353.15 K; 101.33 kPa; Liquid; Vibrating tube method
± gives the expanded uncertainty stated by the source.
The reader will find reported mass density values listed item by item below.
Dear colleague, please send the value followed by its unit.

Consider the worked cases shown below.
Give the measured mass density of CCCCCCn1cc[n+](CCC#N)c1.O=S(=O)([O-])C(F)(F)F .
1245.8 ± 4.3 kg/m3

// repeat for CCCCCCCCCCCCOS(=O)(=O)[O-].CCCCCCn1cc[n+](CCC#N)c1 [3-(2-cyanoethyl)-1-hexyl-1H-imidazolium dodecyl sulfate] and report
1062.6 ± 2.2 kg/m3

Others:
Please give the measured mass density for this compound: CCCCCCn1cc[n+](CCC#N)c1.O=C([O-])c1cccc(S(=O)(=O)O)c1 [3-(2-cyanoethyl)-1-hexyl-1H-imidazolium 3-sulfobenzoate]
1208.9 ± 3.4 kg/m3

Next compound up: CCCCCCn1cc[n+](CCC#N)c1.O=S(=O)([O-])c1ccccc1 [3-(2-cyanoethyl)-1-hexyl-1H-imidazolium benzenesulfonate]
1187.8 ± 2.4 kg/m3

What about this compound? CCCCC(CC)COC(=O)CC(C(=O)OCC(CC)CCCC)S(=O)(=O)[O-].CCCCCC[n+]1ccn(CCC#N)c1 (stereo not given)
1050.7 ± 2.4 kg/m3

----------
Parameter: viscosity. Scope: all listed entries.
- MEASUREMENT CONDITIONS: 353.15 K; 101.33 kPa; Liquid
Field format: number, assumed mPa·s, no unit text.

Query (molecule): CCCCC(CC)COC(=O)CC(C(=O)OCC(CC)CCCC)S(=O)(=O)[O-].CCCCCC[n+]1ccn(CCC#N)c1 (stereo not given) ; field requested: viscosity
191.2

Next:
viscosity for CCCCCCn1cc[n+](CCC#N)c1.O=S(=O)([O-])c1ccccc1 [3-(2-cyanoethyl)-1-hexyl-1H-imidazolium benzenesulfonate] ?
70

Now consider CCCCCCCCCCCCOS(=O)(=O)[O-].CCCCCCn1cc[n+](CCC#N)c1 [3-(2-cyanoethyl)-1-hexyl-1H-imidazolium dodecyl sulfate] .
133.6

Now consider CCCCCCn1cc[n+](CCC#N)c1.O=S(=O)([O-])C(F)(F)F .
29.4

One more molecule: CCCCCCn1cc[n+](CCC#N)c1.O=C([O-])c1cccc(S(=O)(=O)O)c1 [3-(2-cyanoethyl)-1-hexyl-1H-imidazolium 3-sulfobenzoate]
92.8

----------
- MEASUREMENT CONDITIONS: 323.15 K; 101.33 kPa; Liquid
EXPERIMENTAL ENDPOINT: viscosity (mPa·s)
Give just the number in mPa·s; leave the unit off.

Known viscosity results, listed for orientation:
What does the record list as viscosity for CCCCCCn1cc[n+](CCC#N)c1.O=S(=O)([O-])c1ccccc1 [3-(2-cyanoethyl)-1-hexyl-1H-imidazolium benzenesulfonate] ?
537.6

Again, but for CCCCCCn1cc[n+](CCC#N)c1.O=C([O-])c1cccc(S(=O)(=O)O)c1 [3-(2-cyanoethyl)-1-hexyl-1H-imidazolium 3-sulfobenzoate]
1189.9

Lookup CCCCC(CC)COC(=O)CC(C(=O)OCC(CC)CCCC)S(=O)(=O)[O-].CCCCCC[n+]1ccn(CCC#N)c1 (stereo not given)
1947.7

Again, but for CCCCCCn1cc[n+](CCC#N)c1.O=S(=O)([O-])C(F)(F)F
214

Turning now to a further record.
Name the reported viscosity value associated with the molecule CCCCCCCCCCCCOS(=O)(=O)[O-].CCCCCCn1cc[n+](CCC#N)c1 [3-(2-cyanoethyl)-1-hexyl-1H-imidazolium dodecyl sulfate]
1301.8

----------
- MEASUREMENT CONDITIONS: 333.15 K; 101.33 kPa; Liquid
± gives the expanded uncertainty stated by the source.
EXPERIMENTAL ENDPOINT: viscosity
Number first, unit second: that is the form wanted.

Examples with their reported viscosity follow.
What value of viscosity has been recorded for this entry: CCCCCCn1cc[n+](CCC#N)c1.O=S(=O)([O-])C(F)(F)F
102.7 ± 4.7 mPa·s

Queued: CCCCC(CC)COC(=O)CC(C(=O)OCC(CC)CCCC)S(=O)(=O)[O-].CCCCCC[n+]1ccn(CCC#N)c1 (stereo not given)
848.3 ± 130 mPa·s

And CCCCCCCCCCCCOS(=O)(=O)[O-].CCCCCCn1cc[n+](CCC#N)c1 [3-(2-cyanoethyl)-1-hexyl-1H-imidazolium dodecyl sulfate] ?
566.9 ± 75 mPa·s

What about CCCCCCn1cc[n+](CCC#N)c1.O=S(=O)([O-])c1ccccc1 [3-(2-cyanoethyl)-1-hexyl-1H-imidazolium benzenesulfonate] ?
274.2 ± 26 mPa·s

***
Which viscosity value is on record for CCCCCCn1cc[n+](CCC#N)c1.O=C([O-])c1cccc(S(=O)(=O)O)c1 [3-(2-cyanoethyl)-1-hexyl-1H-imidazolium 3-sulfobenzoate] ?
557.3 ± 74 mPa·s
